- Test system: NCI-H322M lung
- assayName: NCI-60 one-dose screen, 48 h (100 = growth as untreated, 0 = no growth, -100 = all killed)
- conditionNotes: 10 µM unless noted
This is part of a sample that, as a whole, favours compounds with a hit. Of some 83,000 tested, about 20% had one in any assay. Active and inactive are the calls of the source. How the source made its calls: active means growth percent below 10; inactive means the rest.
Consider the following molecules and their measured growth readings.
measuredParameter: growth

molecule	testValue
CCCCCCNC(=O)Oc1ccc(/C(=C(/C)c2ccccc2)c2ccc(OCCN(C)C)cc2)cc1	77.1% (inactive)
Nc1ccc(-c2nnc(SCc3ccc(O)c4ncccc34)n2-c2ccccc2)cc1	23.7% (inactive)
C/C=C/[C@@H]1C=C[C@@H]2C[C@H](C)CC[C@H]2[C@]1(C)/C(O)=C1/C(=O)[C@H](CO)N(C)C1=O	61.6% (inactive)
CCOC(=O)c1c(NC(=O)c2ccc(F)cc2F)sc2c1CCC(=O)C2	102% (inactive)
O=C1Nc2cc(OC(F)(F)F)ccc2Oc2ccc(-c3ccnc(N4CC[C@H](O)C4)c3)cc21	55.1% (inactive)
C=CCn1c(SCC(=O)Nc2cccc(C(=O)/C=C/c3ccc(Br)cc3)c2)nc2ccccc2c1=O	86.6% (inactive)
Cc1ccc(NC(=O)c2cccc(CN3CCN(C)CC3)c2)cc1Oc1ccc(-c2[nH]nc3ncnc(N)c23)cc1	83.9% (inactive)
C/C(=C(/c1ccc(O)cc1)c1ccc(OCCN2CCCCCC2)cc1)c1ccccc1	67% (inactive)
CC(=O)NC(C)(C)C(=O)N[C@@H](C)C(=O)NC(C)(C)C(=O)N[C@@H](C)C(=O)NC(C)(C)C(=O)N[C@@H](C)C(=O)N[C@@H](CCC(N)=O)C(=O)NC(C)(C)C(=O)N[C@H](C(=O)NC(C)(C)C(=O)NCC(=O)N[C@@H](CC(C)C)C(=O)NC(C)(C)C(=O)N1CCC[C@H]1C(=O)N[C@H](C(=O)NC(C)(C)C(=O)NC(C)(C)C(=O)N[C@@H](CCC(N)=O)C(=O)N[C@@H](CCC(N)=O)C(=O)N[C@H](CO)CC1CCCCC1)C(C)C)C(C)C	94.2% [5 µM] (inactive)
Nc1n[nH]c2cccc(C#Cc3cccc(NC(=O)c4cccc(OC(F)(F)F)c4)c3)c12	77.3% (inactive)
NS(=O)(=O)c1ccc(Nc2nc(N/N=C/c3ccc(C(F)(F)F)cc3)nc(Nc3ccccc3)n2)cc1	52.6% (inactive)
Cc1csc(Nc2cccc(Nc3nc(C)cs3)c2)n1	96.2% (inactive)
Cn1c2ccccc2c2c3c(c4c5ccc(Br)cc5oc4c21)C(=O)N(O)C3=O	96.8% (inactive)
Cc1[nH]nc2ccc(-c3nc4cnc(N5CCN(C)CC5)cn4c3Nc3ccc(F)cc3Br)cc12	63.3% (inactive)
CN1CCN(c2nc(-c3csc(-c4ccncc4)n3)cc3ccccc23)CC1	82.1% (inactive)
C#CCOc1ccc(C(Nc2ccc(Cl)cc2)c2nnnn2C2CCCCC2)cc1 (stereo unspecified)	93.6% (inactive)

---

Reported growth by item:
- System: BT-549 breast
- assayName: NCI-60 one-dose screen, 48 h (100 = growth as untreated, 0 = no growth, -100 = all killed)
- conditionNotes: 10 µM unless noted
This is part of a sample that, as a whole, favours compounds with a hit. Of some 83,000 tested, about 20% had one in any assay.
measuredParameter: growth (%)

>>> print(df.to_string())
                                   compound    assaytarget  testvalue
0  COc1ccc(C2CC(c3ccc(Nc4nc(NCCO)nc(Nc5ccc(Cl)cc5)n4)cc3)=Nc3c(N)nc(N)nc3N2)cc1 (centres undefined)  BT-549 breast       77.5
1  C#Cc1ccc(NC(=O)c2ccc(/C=C/C(=O)c3nccn3C)cc2)c(F)c1  BT-549 breast       40.2
2  C#C[C@]1(O)CC[C@H]2[C@@H]3CC=C4c5sc(-c6ccc(OC)cc6)nc5CC[C@]4(C)[C@H]3CC[C@@]21C  BT-549 breast         47
3  COc1ccc(-c2oc3cc(O)cc(O)c3c(=O)c2OC)cc1O  BT-549 breast       40.3
4  Cc1ccc(NC(=O)c2ccc(CN3CCN(C)CC3)c(C(F)(F)F)c2)cc1Oc1ccc(-c2[nH]nc3ncnc(N)c23)cc1  BT-549 breast        105
5  O=C1c2c(c3c4cc(Br)ccc4[nH]c3c3ccc4ccccc4c23)C(=O)N1CCN1CCCCC1  BT-549 breast         91
6  O=C(c1cccc(F)c1)n1ccc2cc(NC(=S)Nc3cccnc3)ccc21  BT-549 breast       97.6
7    Cc1nc(-c2cc3ccccc3c(N3CCN(C)CC3)n2)cs1  BT-549 breast       97.5
8  CCOC(=O)C1=C(C)Nc2nc3ccccc3n2C1c1cccc(Br)c1 (centres undefined)  BT-549 breast       76.9

# credit: PubChem BioAssay (NCI)
